biological target: VEGFR2 kinase (Homo sapiens, UniProt P35968); construct: recombinant N-terminal 6×His-tagged VEGFR2 kinase domain construct expressed by baculovirus; 6xHis (N); made in house; assay: VEGFR2 kinase assay (33P incorporation into Poly(Glu-Tyr)); format: biochemical; details: 500 nM test compound; read-out: Inhibition at 500 nM (%) VEGFr-2
Sequence (P35968 834-1162 limits assumed): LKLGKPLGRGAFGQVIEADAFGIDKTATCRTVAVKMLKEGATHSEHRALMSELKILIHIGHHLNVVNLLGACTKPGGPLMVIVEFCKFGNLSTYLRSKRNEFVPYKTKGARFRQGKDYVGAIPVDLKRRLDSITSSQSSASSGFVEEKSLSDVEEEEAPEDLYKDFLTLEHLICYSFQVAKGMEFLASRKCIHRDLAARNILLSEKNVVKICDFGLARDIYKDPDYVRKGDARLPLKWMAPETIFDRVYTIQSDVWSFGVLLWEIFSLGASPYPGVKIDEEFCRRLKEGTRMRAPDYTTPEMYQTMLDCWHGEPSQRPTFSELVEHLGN
Lab note: compare inhibition at 0.5 µM against 60%. Equal or greater, write Condition met. Smaller, write Condition not met.

Answered cases to consult:
INSERT INTO measurements (molecule, answerlabel) VALUES
  ('CCOC(=O)CCc1c(C=C2C(=S)Nc3cc(Br)ccc32)[nH]c2c1C(=O)CCC2 [DCB-70085]', 'Condition not met'),
  ('O=C(O)CCc1c(/C=C2\C(=O)Nc3ccc(S(=O)(=O)Cc4ccccc4)cc32)[nH]c2c1C(=O)CCC2 [DCB-70071]', 'Condition met'),
  ('Cc1ccc(NC(=O)Nc2ccc3c(c2)/C(=C/c2[nH]c4c(c2CCC(=O)O)C(=O)CCC4)C(=O)N3)cc1 [DCB-70093]', 'Condition met'),
  ('COc1cc(-c2ccc3c(c2)NC(=O)/C3=C\c2[nH]c3c(c2CCC(=O)O)C(=O)CCC3)ccc1O [DCB-70082]', 'Condition met');

As a next step, examine the molecule that follows.
Evaluate CCOC(=O)CCc1c(/C=C2\C(=O)Nc3cc(-c4cc(F)cc(F)c4)ccc32)[nH]c2c1C(=O)CCC2 [DCB-70100] : inhibition at 0.5 µM at minimum 60%? Condition not met

---

target: Flt3 kinase (Homo sapiens, UniProt P36888); construct: recombinant N-terminal 6×His-tagged Flt3 kinase domain construct expressed from baculovirus; 6xHis (N); made in house; assay: Flt3 kinase assay (33P incorporation into Poly(Glu-Tyr)); format: biochemical; details: 100 nM test compound; read-out: Inhibition at 100 nM (%) Flt-3
Sequence (P36888 610-943 limits assumed): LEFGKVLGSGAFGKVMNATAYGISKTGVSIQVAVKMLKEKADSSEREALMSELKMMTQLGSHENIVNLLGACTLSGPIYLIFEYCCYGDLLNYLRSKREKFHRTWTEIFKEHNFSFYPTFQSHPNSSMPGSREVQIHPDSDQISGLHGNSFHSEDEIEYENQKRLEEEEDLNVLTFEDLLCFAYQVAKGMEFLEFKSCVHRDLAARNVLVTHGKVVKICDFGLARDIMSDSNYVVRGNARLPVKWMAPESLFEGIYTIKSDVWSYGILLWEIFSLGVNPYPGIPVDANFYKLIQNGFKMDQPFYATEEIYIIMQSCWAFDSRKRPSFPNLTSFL
Counter-ions that a name gives are not always drawn.
Lab note: compare inhibition at 0.1 µM against 20%. Equal or greater, write Yes. Smaller, write No.

INSERT INTO measurements (compound, answerlabel) VALUES
  ('CCOC(=O)CCc1c(/C=C2\C(=O)Nc3ccc(NS(=O)(=O)CC)cc32)[nH]c2c1C(=O)CCC2', 'No'),
  ('CCOC(=O)CCc1c(/C=C2\C(=O)Nc3ccc(-c4ccc(O)c(OC)c4)cc32)[nH]c2c1C(=O)CCC2', 'Yes'),
  ('CCOC(=O)CCc1c(/C=C2\C(=O)Nc3ccc(NC(=O)Nc4ccc(Cl)c(C(F)(F)F)c4)cc32)[nH]c2c1C(=O)CCC2', 'Yes'),
  ('CN1CCN(S(=O)(=O)c2ccc3c(c2)/C(=C/c2[nH]c4c(c2CCC(=O)O)C(=O)CCC4)C(=O)N3)CC1 [DCB-70107, hydrochloride]', 'No'),
  ('O=C(O)CCc1c(/C=C2\C(=O)Nc3ccc(S(=O)(=O)Cc4ccc(F)cc4)cc32)[nH]c2c1C(=O)CCC2', 'No'),
  ('O=C(O)CCc1c(/C=C2\C(=O)Nc3ccc(S(=O)(=O)N4CCCCC4)cc32)[nH]c2c1C(=O)CCC2', 'No');

Evaluate "O=C(O)CCc1c(/C=C2\C(=O)Nc3ccc(S(=O)(=O)N4CCOCC4)cc32)[nH]c2c1C(=O)CCC2" : inhibition at 0.1 µM at minimum 20%? No

Evaluate "CCOC(=O)CCc1c(C=C2C(=S)Nc3ccccc32)[nH]c2c1C(=O)CCC2" : inhibition at 0.1 µM at minimum 20%? No

Evaluate "O=C(O)CCc1c(/C=C2\C(=O)Nc3cc(F)ccc32)[nH]c2c1C(=O)CCC2" : inhibition at 0.1 µM at minimum 20%? Yes

Evaluate "O=C(O)CCc1c(/C=C2\C(=O)Nc3cc(-c4ccc(O)cc4)ccc32)[nH]c2c1C(=O)CCC2" : inhibition at 0.1 µM at minimum 20%? Yes

Each recorded value in this set is attributed to patent US7897602B2.
